- Tested Target: ovine COX-1 (oCOX-1) (Ovis aries)
- Construct: purchased Cayman Chemicals (Ann Arbor, Mich.)
- Sequence (P05979 25-600): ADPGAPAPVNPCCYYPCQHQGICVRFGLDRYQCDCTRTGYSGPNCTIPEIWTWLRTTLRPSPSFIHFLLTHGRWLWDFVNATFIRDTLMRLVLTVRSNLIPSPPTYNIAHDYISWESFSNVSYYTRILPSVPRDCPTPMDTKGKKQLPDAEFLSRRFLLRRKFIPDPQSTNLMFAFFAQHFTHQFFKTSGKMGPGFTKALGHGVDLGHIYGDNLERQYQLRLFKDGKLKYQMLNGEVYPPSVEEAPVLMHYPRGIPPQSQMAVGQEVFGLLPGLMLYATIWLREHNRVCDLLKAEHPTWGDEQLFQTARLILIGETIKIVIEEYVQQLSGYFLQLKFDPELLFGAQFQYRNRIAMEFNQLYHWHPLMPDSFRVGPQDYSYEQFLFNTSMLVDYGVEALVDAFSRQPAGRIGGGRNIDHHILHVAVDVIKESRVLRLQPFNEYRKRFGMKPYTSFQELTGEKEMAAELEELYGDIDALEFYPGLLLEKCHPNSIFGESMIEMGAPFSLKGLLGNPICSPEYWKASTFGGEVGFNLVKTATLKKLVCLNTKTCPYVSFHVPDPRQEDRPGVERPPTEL
- Run Description: LCMS-based COX-1 enzymatic inhibition assay (PGE2 quantification)
- Assay type: biochemical
- Cond: 10 minutes; readout pge2/pge2d4 area ratio; average; read-out: COX1 10 minutes pge2/pge2d4 area ratio Avg. IC50
Parameter Measured: IC50 (µM)
Please give a number only; it is taken to be in µM.

Structure Notation: CS(=O)(=O)c1ccc(-c2cccc(NCc3ccns3)n2)cc1
Tested Target: ovine COX-1 (oCOX-1) (Ovis aries)
Unit Name: µM
Observed Value: 42.6
//
Structure Notation: CS(=O)(=O)c1ccc(-c2cccc(NCc3cncs3)n2)cc1
Tested Target: ovine COX-1 (oCOX-1) (Ovis aries)
Unit Name: µM
Observed Value: 45.9

Task: For CS(=O)(=O)c1ccc(-c2ccc3ccn(Cc4ccoc4)c3n2)cc1 , write its IC50.
Output: 11.4

Task: For CS(=O)(=O)c1ccc(-c2cccc(NCc3ccco3)n2)cc1 , write its IC50.
Output: 36.4

Task: For CS(=O)(=O)c1ccc(-c2cncc(OCc3cccs3)n2)cc1 , write its IC50.
Output: 10.4

Task: For Cc1csc(COc2cncc(-c3ccc(S(C)(=O)=O)cc3)n2)c1 , write its IC50.
Output: 5.85

Task: For NS(=O)(=O)c1ccc(-c2cncc(OCc3cccs3)n2)cc1 , write its IC50.
Output: 1.1

Where these numbers come from: patent US20220348590A1
